- TARGET: Gastrin receptor (gastric glands) (Cavia porcellus, UniProt H0VZC5)
- Construct: The washed guinea pig gastric glands prepared as above were resuspended; from tissue; host or cells: guinea pig gastric mucosal glands (male Hartley)
- Sequence (H0VZC5 1-426): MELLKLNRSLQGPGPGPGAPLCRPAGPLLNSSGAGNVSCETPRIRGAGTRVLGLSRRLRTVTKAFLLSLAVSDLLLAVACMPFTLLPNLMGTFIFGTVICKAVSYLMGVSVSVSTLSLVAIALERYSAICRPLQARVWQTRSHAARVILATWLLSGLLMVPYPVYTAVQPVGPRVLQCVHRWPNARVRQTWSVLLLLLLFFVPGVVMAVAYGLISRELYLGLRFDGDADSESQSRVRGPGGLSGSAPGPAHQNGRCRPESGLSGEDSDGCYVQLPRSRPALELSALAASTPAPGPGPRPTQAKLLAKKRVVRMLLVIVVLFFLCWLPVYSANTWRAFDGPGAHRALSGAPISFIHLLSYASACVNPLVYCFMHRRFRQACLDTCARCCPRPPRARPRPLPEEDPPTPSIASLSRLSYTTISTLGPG
- ASSAY DETAILS: Gastrin Receptor Binding in Guinea Pig Gastric Glands
- Set-up: species or system guinea pig (male Hartley)
- ASSAY CONTEXT: IC50 ^125 I-Gastrin Gastric Glands, 25° C., 30 minutes
Overview of recorded IC50 for various compounds

COMPOUND: CN(C)c1ccc(C(=O)NC2N=C(c3ccccc3F)c3ccccc3NC2=O)cc1 (racemic) [Example 152]
IC50: > 100 µM
--
COMPOUND: CN(C(=O)c1cc2ccccc2[nH]1)C1N=C(c2ccccc2)c2ccccc2NC1=O (racemic) [Example 119]
IC50: > 10 µM

Problem: Quick one: give measured IC50 for CC(C)(C)OC(=O)N[C@H](Cc1c[nH]c2ccccc12)C(=O)NC1N=C(c2ccccc2)c2ccccc2NC1=O (mixture of isomers) [Example 96]
Result: 500 µM

Problem: Let me know recorded IC50 for CN1C(=O)C(NC(=O)Nc2ccc(Cl)c(Cl)c2)N=C(c2ccccc2)c2ccccc21 (stereo not shown) [Example 257] , thanks.
Result: 0.048 µM

====

- TARGET: CCK receptor (brain, cerebral cortex) (Cavia porcellus, UniProt H0VZC5)
- Construct: Cerebral cortex was dissected and used as a receptor source; from tissue; host or cells: guinea pig cerebral cortex membranes (male Hartley)
- ASSAY DETAILS: biochemical
- Type: binding, Male Hartley guinea pigs
- ASSAY CONTEXT: read-out: IC50 ^125 I-CCK Brain
VALUE KIND: IC50

Problem: Tell us which IC50 value is on record for CC(C)(C)OC(=O)N[C@H](Cc1c[nH]c2ccccc12)C(=O)Nc1ccccc1C(=O)c1ccccc1F
Result: > 100 µM

====

- TARGET: CCK receptor (pancreas) (Rattus norvegicus, UniProt P30551)
- Construct: The whole pancreas was dissected free of fat tissue and was homogenized; from tissue; host or cells: rat pancreas membranes (Sprague-Dawley)
- Sequence (P30551 whole entry): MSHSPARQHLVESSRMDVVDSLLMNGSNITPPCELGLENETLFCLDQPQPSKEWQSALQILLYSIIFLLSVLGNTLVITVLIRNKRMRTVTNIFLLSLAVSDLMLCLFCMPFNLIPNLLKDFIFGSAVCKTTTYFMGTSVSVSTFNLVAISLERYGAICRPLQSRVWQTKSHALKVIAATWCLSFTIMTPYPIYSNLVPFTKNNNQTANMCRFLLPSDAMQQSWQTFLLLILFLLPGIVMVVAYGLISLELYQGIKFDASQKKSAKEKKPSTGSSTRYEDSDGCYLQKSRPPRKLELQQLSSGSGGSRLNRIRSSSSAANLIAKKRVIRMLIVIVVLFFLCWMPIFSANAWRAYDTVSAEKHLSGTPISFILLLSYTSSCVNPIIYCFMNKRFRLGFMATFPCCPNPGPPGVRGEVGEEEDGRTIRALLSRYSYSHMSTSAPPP
- ASSAY DETAILS: CCK Receptor Binding (Pancreas): inhibition of ^125 I-CCK-33 binding
- Parameters: species or system Male Sprague-Dawley rats
- ASSAY CONTEXT: rat pancreas membranes, ^125 I-CCK-33, 37° C., 30 minutes; read-out: IC50 ^125 I-CCK Pancreas
VALUE KIND: IC50

COMPOUND: CN1C(=O)[C@H](NC(=O)Nc2ccc(Cl)cc2)N=C(c2ccccc2)c2ccccc21
REPORTED VALUE: 1100 nM
//
COMPOUND: CN1C(=O)[C@@H](NC(=O)c2cc3ccccc3[nH]2)N=C(c2ccccc2F)c2ccccc21
REPORTED VALUE: 0.6 nM
//
COMPOUND: CCN(CC)C(=O)CN1C(=O)C(NC(=O)Nc2ccc(Cl)cc2)N=C(c2ccccc2)c2ccccc21 (centres unmarked)
REPORTED VALUE: 400 nM
//
COMPOUND: CCCCCc1ccc(C(=O)N[C@@H]2N=C(c3ccccc3)c3ccccc3N(C)C2=O)cc1
REPORTED VALUE: 12000 nM
//
COMPOUND: O=C(O)CN1C(=O)C(NC(=O)Nc2ccc(Cl)cc2)N=C(c2ccccc2)c2ccccc21 (centres unmarked)
REPORTED VALUE: 56 nM
//
COMPOUND: CCOC(=O)CCN1C(=O)C(NC(=O)Nc2ccc(Cl)cc2)N=C(c2ccccc2)c2ccccc21 (centres unmarked)
REPORTED VALUE: 490 nM
//
COMPOUND: O=C(c1ccccc1F)c1ccccc1NC(=O)C(CN1C(=O)c2ccccc2C1=O)N1C(=O)c2ccccc2C1=O (racemic)
REPORTED VALUE: > 100000 nM
//
COMPOUND: CSC1=N[C@@H](Cc2c[nH]c3ccccc23)C(=O)N(C)c2ccccc21
REPORTED VALUE: 100000 nM
//
COMPOUND: CCOC(=O)CN1C(=O)C(NC(=O)Nc2ccc(Cl)cc2)N=C(c2ccccc2)c2ccccc21 (centres unmarked)
REPORTED VALUE: 370 nM
//
COMPOUND: CCOC(=O)CN1C(=O)C(NC(=O)Nc2ccc(Cl)cc2)N=C(c2ccccc2F)c2ccccc21 (centres unmarked)
REPORTED VALUE: 220 nM

Problem: State IC50 on CCK receptor (pancreas) (Rattus norvegicus, UniProt P30551). Entry: CN1C(=O)C(NC(=O)Nc2cccc(F)c2)N=C(c2ccccc2)c2ccccc21 (centres unmarked)
Result: 10 nM

Problem: Please respond with reported IC50 (system CCK receptor (pancreas) (Rattus norvegicus, UniProt P30551)) for O=C(CN1C(=O)C(NC(=O)Nc2ccc(Cl)cc2)N=C(c2ccccc2)c2ccccc21)NCc1ccccc1 (centres unmarked) .
Result: 2400 nM

Problem: Give IC50 only, for CN1C(=O)C(NC(=O)Nc2ccc(Br)cc2)N=C(c2ccccc2)c2ccccc21 (centres unmarked) , using CCK receptor (pancreas) (Rattus norvegicus, UniProt P30551) data.
Result: 130 nM

Problem: Give IC50; test system CCK receptor (pancreas) (Rattus norvegicus, UniProt P30551); compound CN1C(=O)[C@H](NC(=O)c2ccccc2I)N=C(c2ccccc2F)c2ccccc21
Result: 58000 nM

Problem: Specify IC50 for CN1C(=O)[C@H](NC(=O)c2ccc(Cl)cc2)N=C(c2ccccc2F)c2ccccc21 , system CCK receptor (pancreas) (Rattus norvegicus, UniProt P30551).
Result: 49 nM

Problem: Please indicate recorded IC50 of CN1C(=O)[C@@H](NC(=O)c2cccc(Br)c2)N=C(c2ccccc2F)c2ccccc21 measured with CCK receptor (pancreas) (Rattus norvegicus, UniProt P30551).
Result: 3.5 nM

Problem: Enter recorded IC50 with CCK receptor (pancreas) (Rattus norvegicus, UniProt P30551) for CN1C(=O)C(NC(=O)Nc2ccc(Cl)cc2)N=C(c2ccccc2)c2ccccc21 (centres unmarked) here.
Result: 51 nM

Problem: Under CCK receptor (pancreas) (Rattus norvegicus, UniProt P30551), report IC50 for CC1=N[C@H](Cc2c[nH]c3ccccc23)C(=O)Nc2ccccc21
Result: 48000 nM

Problem: Provide IC50, system CCK receptor (pancreas) (Rattus norvegicus, UniProt P30551), entry CN1C(=O)C(NC(=O)Nc2ccc(Cl)cc2Cl)N=C(c2ccccc2)c2ccccc21 (centres unmarked)
Result: 3 nM

Problem: // fetch IC50; item: CN1C(=O)[C@@H](Cc2cn(C)c3ccccc23)N(C(=O)c2ccc(Cl)cc2)C(c2ccccc2F)c2ccccc21 (some centres unmarked) [Example 27a] ; system: CCK receptor (pancreas) (Rattus norvegicus, UniProt P30551)
Result: > 100000 nM

Problem: Using CCK receptor (pancreas) (Rattus norvegicus, UniProt P30551) as the test system, report measured IC50 of CN1C(=O)C(NC(=O)c2ccsc2)N=C(c2ccccc2F)c2ccccc21 (centres unmarked) .
Result: 28 nM

Problem: Enter IC50 (test system CCK receptor (pancreas) (Rattus norvegicus, UniProt P30551)) for CN1C(=O)[C@@H](NC(=O)c2ccccc2I)N=C(c2ccccc2F)c2ccccc21
Result: 800 nM

Problem: Give measured IC50 for COc1cccc(NC(=O)N[C@@H]2N=C(c3ccccc3)c3ccccc3N(C)C2=O)c1 (CCK receptor (pancreas) (Rattus norvegicus, UniProt P30551)).
Result: 600 nM

Problem: Send back CCK receptor (pancreas) (Rattus norvegicus, UniProt P30551) IC50 of CN1C(=O)[C@@H](NC(=O)C(C)(C)C)N=C(c2ccccc2)c2ccccc21 only.
Result: 1600 nM

Problem: Look up and report IC50, with CCK receptor (pancreas) (Rattus norvegicus, UniProt P30551) as system, for CN1C(=O)C(NC(=O)NC2CCCCC2)N=C(c2ccccc2)c2ccccc21 (centres unmarked)
Result: 2400 nM

Problem: Give IC50 for this entry on CCK receptor (pancreas) (Rattus norvegicus, UniProt P30551): CC(C)C(=O)N[C@H]1N=C(c2ccccc2)c2ccccc2N(C)C1=O
Result: 1100 nM

Problem: Give IC50 only, for CN1C(=O)[C@H](NC(=O)c2ccc(C(F)(F)F)cc2)N=C(c2ccccc2)c2ccccc21 , using CCK receptor (pancreas) (Rattus norvegicus, UniProt P30551) data.
Result: 115000 nM

Problem: Consider the compound CN1C(=O)C(NC(=O)Nc2ccc(F)cc2)N=C(c2ccccc2)c2ccccc21 (centres unmarked) tested on CCK receptor (pancreas) (Rattus norvegicus, UniProt P30551); state its IC50.
Result: 46 nM

Problem: Quote CCK receptor (pancreas) (Rattus norvegicus, UniProt P30551) IC50 for entry CSC1=N[C@@H](Cc2cn(C)c3ccccc23)C(=O)N(C)c2ccccc21 .
Result: > 100000 nM

Problem: Tell me IC50 of CN1C(=O)C(NC(=O)Nc2cccc([N+](=O)[O-])c2)N=C(c2ccccc2)c2ccccc21 (centres unmarked) when tested on CCK receptor (pancreas) (Rattus norvegicus, UniProt P30551).
Result: 34 nM

Problem: State the measured IC50 (CCK receptor (pancreas) (Rattus norvegicus, UniProt P30551)) of CN1C(=O)[C@H](NC(=O)c2ccc(Br)cc2)N=C(c2ccccc2)c2ccccc21
Result: 700 nM

Problem: Fill in IC50 for CN1C(=O)[C@H](NC(=O)c2cc3ccccc3[nH]2)N=C(c2ccccc2F)c2ccccc21 tested with CCK receptor (pancreas) (Rattus norvegicus, UniProt P30551).
Result: 19 nM
